Biological target: h-mT1R2-481/mT1R3 (UniProt Q8TE23+Q925D8, A537S/A564V/A568V/A570T/A649T/A658V/A782V/E530V/E534N/E542M/E548N/F525Y/F665L/G696N/G701T/H484Y/H528R/I481V/I486P/I490V/I510L/I518V/I595M/I643V/I645L/I692L/I695G/K504M/K626T/K714N/L521P/L571I/L578I/L610P/L631F/L636F/L639V/L688V/L702I/L734M/L800F/M492I/M616G/M682V/M690V/M748V/N540G/N541S/N721H/P638T/P824S/Q536L/Q546K/Q555R/Q676H/R498S/R667S/S501P/S547N/S550A/S628F/S663R/S670G/S681F/S703N/S727G/S784D/S804G/T529S/T549I/T609V/T629S/T642S/T705I/T706G/T716I/V508I/V512P/V557A/V585L/V613L/V617M/V673M/V687A/V691A/V694A/V718L/V741L/V774I/V791M/Y533F/Y615F/Y671F/Y769S/Y783H)
Settings: Table 4; genes h-mT481/mT3 (h-mT1R2-481, mT1R3); HEK293E cells
Reported values of S/N for individual entries

| structure_smiles_string | S/N |
| --- | --- |
| OC[C@H]1O[C@@](CO)(O[C@H]2O[C@H](CO)[C@@H](O)[C@H](O)[C@H]2O)[C@@H](O)[C@@H]1O | 3.9 |
| OC[C@H]1O[C@H](O[C@]2(CCl)O[C@H](CCl)[C@@H](O)[C@@H]2O)[C@H](O)[C@@H](O)[C@H]1Cl | 5.7 |
| COC(=O)[C@H](Cc1ccccc1)NC(=O)[C@H](CC(=O)O)NCCCc1ccc(OC)c(O)c1 | 7.1 |
| CC1=CC(=O)NS(=O)(=O)O1 | 3.7 |

----------
Target: h-mT1R2-481/mT1R3 (UniProt Q8TE23+Q925D8, A537S/A564V/A568V/A570T/A649T/A658V/A782V/E530V/E534N/E542M/E548N/F525Y/F665L/G696N/G701T/H484Y/H528R/I481V/I486P/I490V/I510L/I518V/I595M/I643V/I645L/I692L/I695G/K504M/K626T/K714N/L521P/L571I/L578I/L610P/L631F/L636F/L639V/L688V/L702I/L734M/L800F/M492I/M616G/M682V/M690V/M748V/N540G/N541S/N721H/P638T/P824S/Q536L/Q546K/Q555R/Q676H/R498S/R667S/S501P/S547N/S550A/S628F/S663R/S670G/S681F/S703N/S727G/S784D/S804G/T529S/T549I/T609V/T629S/T642S/T705I/T706G/T716I/V508I/V512P/V557A/V585L/V613L/V617M/V673M/V687A/V691A/V694A/V718L/V741L/V774I/V791M/Y533F/Y615F/Y671F/Y769S/Y783H)
Settings: Table 4; genes h-mT481/mT3 (h-mT1R2-481, mT1R3); HEK293E cells
Residues, ends and D or L forms follow the SMILES beside them.
Reported values of S/N for individual entries
experimental_endpoint: S/N

| compound | experimental_endpoint | recorded_value |
| --- | --- | --- |
| C[C@H](NC(=Nc1ccc(C#N)cc1)NCC(=O)O)c1ccccc1 | S/N | 5.2 |
| COC(=O)[C@H](Cc1ccccc1)NC(=O)[C@@H](N)CC(=O)O [Aspartame, aspartame] (HELM PEPTIDE1{D.F.[CO[*:1]]}$$$$V2.0) | S/N | 5.8 |
| O=C1NS(=O)(=O)c2ccccc21.[Na] [Saccharin Na, sodium saccharin] | S/N | 4.4 |
| COC(=O)[C@H](Cc1ccccc1)NC(=O)[C@H](CC(=O)O)NCCC(C)(C)C | S/N | 5.4 |

----------
Target: hT1R2/hT1R3 (Homo sapiens, UniProt Q7RTX0+Q8TE23, C757R)
Construct: expressed in transfected cells; host or cells: HEK293E
Sequence (Q8TE23 20-839): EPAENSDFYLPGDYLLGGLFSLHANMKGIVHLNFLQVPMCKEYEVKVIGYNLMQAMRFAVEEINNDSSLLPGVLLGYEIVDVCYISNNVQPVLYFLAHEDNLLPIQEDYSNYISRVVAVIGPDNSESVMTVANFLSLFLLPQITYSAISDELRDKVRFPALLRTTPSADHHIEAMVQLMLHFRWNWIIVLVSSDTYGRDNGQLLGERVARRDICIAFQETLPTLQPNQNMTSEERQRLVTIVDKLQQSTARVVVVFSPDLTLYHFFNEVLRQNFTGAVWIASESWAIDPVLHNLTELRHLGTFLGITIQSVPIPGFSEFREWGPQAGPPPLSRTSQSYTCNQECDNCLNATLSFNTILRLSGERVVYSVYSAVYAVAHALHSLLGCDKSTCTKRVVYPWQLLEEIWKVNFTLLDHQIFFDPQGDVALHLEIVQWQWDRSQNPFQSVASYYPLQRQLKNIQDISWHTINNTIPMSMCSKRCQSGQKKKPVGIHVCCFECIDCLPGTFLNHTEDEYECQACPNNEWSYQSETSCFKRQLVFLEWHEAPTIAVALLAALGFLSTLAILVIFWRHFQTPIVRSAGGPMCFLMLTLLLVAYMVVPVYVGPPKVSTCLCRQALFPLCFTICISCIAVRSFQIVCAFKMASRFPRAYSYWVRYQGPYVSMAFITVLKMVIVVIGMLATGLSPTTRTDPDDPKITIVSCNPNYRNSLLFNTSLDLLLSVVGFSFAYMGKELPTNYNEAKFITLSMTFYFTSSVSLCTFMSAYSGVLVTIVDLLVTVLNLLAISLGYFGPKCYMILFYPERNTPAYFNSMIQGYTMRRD
Sequence (Q7RTX0 21-852 C757R): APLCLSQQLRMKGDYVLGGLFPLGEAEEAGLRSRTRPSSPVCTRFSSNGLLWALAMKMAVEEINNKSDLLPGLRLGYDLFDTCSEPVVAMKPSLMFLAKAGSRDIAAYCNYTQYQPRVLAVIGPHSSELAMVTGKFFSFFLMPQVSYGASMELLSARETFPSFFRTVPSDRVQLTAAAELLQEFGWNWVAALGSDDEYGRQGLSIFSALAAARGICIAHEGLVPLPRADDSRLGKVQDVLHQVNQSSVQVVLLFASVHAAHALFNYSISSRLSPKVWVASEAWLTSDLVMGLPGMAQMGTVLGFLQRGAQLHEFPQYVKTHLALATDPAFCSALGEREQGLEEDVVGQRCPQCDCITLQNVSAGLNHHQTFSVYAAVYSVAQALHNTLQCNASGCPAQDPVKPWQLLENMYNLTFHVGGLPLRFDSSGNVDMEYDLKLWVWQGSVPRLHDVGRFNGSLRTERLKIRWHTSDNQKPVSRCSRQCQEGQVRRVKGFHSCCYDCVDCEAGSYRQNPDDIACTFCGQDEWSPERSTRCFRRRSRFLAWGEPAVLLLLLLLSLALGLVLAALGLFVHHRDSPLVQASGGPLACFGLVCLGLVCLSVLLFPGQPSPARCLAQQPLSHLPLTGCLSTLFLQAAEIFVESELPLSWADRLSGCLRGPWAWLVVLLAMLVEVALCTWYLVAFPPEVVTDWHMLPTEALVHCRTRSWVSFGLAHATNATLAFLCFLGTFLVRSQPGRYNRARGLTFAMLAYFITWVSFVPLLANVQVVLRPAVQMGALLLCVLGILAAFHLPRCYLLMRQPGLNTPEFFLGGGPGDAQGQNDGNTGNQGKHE
Assay: Intracellular calcium assay (ΔF/F, S/N ratio) in HEK293E cells expressing hT1R2 and hT1R3 with Gα15-trans48LD;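 further: fluorescence read over 120 s after adding sweet stimulant across several concentrations, S/N taken as highest over lowest ΔF/F, higher meaning more sensitive detection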
Assay type: cell-based
Details: Table 3, genes hT2/hT3 (hT1R2, hT1R3), max ΔF/F over min ΔF/F across concentrations
Residues, ends and D or L forms follow the SMILES beside them.
Mark each entry Fulfilled if its S/N sits below 3, and Not fulfilled for all others.

| compound | label |
| --- | --- |
| O=C1NS(=O)(=O)c2ccccc21.[Na] [Saccharin Na, sodium saccharin] | Fulfilled |
| COC(=O)[C@H](Cc1ccccc1)NC(=O)[C@@H](N)CC(=O)O [Aspartame, aspartame] (HELM PEPTIDE1{D.F.[CO[*:1]]}$$$$V2.0) | Fulfilled |
| OC[C@H]1O[C@@](CO)(O[C@H]2O[C@H](CO)[C@@H](O)[C@H](O)[C@H]2O)[C@@H](O)[C@@H]1O | Fulfilled |
| OC[C@H]1O[C@H](O[C@]2(CCl)O[C@H](CCl)[C@@H](O)[C@@H]2O)[C@H](O)[C@@H](O)[C@H]1Cl | Not fulfilled |
| COC(=O)[C@H](Cc1ccccc1)NC(=O)[C@H](CC(=O)O)NCCCc1ccc(OC)c(O)c1 | Not fulfilled |
| COC(=O)[C@H](Cc1ccccc1)NC(=O)[C@H](CC(=O)O)NCCC(C)(C)C | Fulfilled |
| CC1=CC(=O)NS(=O)(=O)O1 | Fulfilled |

----------
Biological target: h-mT1R2-471/T1R3mosaicA (UniProt Q8TE23+Q925D8, A12W/A31M/A537S/A558R/A564V/A568V/A570T/A588V/A645S/A649T/A658V/A698V/A702T/A782V/A793V/A807V/C582S/C678S/D480N/E16H/E530V/E534N/E542M/E548N/E725V/F14L/F29L/F525Y/F541I/F612A/F622V/F665L/F695L/G696N/G701T/H484Y/H528R/H728R/I36V/I481V/I486P/I490V/I510L/I518V/I595M/I60P/I617V/I643V/I645L/I692L/I695G/I706V/I740A/I803L/K30R/K476T/K504M/K555R/K565R/K626T/K714N/K818R/K827G/L17P/L471T/L521P/L560F/L571I/L578I/L610P/L631F/L636F/L639V/L684P/L688V/L702I/L734M/L735F/L800F/L823M/L825Q/M19T/M492I/M616G/M644L/M682V/M690V/M744T/M748V/N477Y/N52R/N540G/N541S/N547G/N58S/N63T/N675D/N721H/P545F/P561R/P564S/P61V/P638T/P824S/Q32K/Q472E/Q474R/Q479S/Q536L/Q53S/Q546K/Q550E/Q555R/Q56R/Q611L/Q676H/Q757R/Q795R/Q831P/R473T/R498S/R632Q/R667S/S22P/S45E/S501P/S547N/S550A/S576L/S595F/S610P/S628F/S635P/S637R/S663R/S670G/S679G/S681F/S703N/S717H/S727G/S784D/S804G/T46A/T50G/T529S/T542A/T549I/T609V/T629S/T642S/T663I/T694M/T705I/T706G/T716I/T813A/V508I/V512P/V557A/V573A/V584A/V585L/V613L/V617M/V673M/V687A/V691A/V694A/V718L/V718M/V723A/V729T/V738A/V741L/V774I/V791M/V805L/V812A/V821L/W599R/W676R/W824R/Y533F/Y615F/Y671F/Y680C/Y769S/Y783H/Y794L)
Sequence (Q8TE23 with tags, fused parts or gaps with the stated changes limits assumed): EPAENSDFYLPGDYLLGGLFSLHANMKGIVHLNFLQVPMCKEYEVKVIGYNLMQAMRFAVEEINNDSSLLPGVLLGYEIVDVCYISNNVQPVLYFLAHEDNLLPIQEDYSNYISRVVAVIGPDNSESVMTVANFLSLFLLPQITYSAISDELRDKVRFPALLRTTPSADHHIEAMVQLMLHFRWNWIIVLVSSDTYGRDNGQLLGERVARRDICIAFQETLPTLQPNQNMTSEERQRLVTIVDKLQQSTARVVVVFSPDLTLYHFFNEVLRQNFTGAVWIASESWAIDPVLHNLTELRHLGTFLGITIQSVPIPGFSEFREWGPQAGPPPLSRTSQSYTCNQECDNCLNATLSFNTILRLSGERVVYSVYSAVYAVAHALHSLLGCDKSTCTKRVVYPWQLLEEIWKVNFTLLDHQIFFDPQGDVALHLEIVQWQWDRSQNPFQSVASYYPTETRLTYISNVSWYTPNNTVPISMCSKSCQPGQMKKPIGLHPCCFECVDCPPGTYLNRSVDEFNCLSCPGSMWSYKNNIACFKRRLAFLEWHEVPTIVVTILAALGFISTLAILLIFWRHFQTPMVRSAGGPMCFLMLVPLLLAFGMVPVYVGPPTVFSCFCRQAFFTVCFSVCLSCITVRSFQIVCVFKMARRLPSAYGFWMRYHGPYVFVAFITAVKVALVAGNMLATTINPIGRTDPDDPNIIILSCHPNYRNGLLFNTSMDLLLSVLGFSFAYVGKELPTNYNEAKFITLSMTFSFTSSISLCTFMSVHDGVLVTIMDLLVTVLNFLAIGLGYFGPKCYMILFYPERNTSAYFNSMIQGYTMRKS
Sequence (Q925D8 with tags, fused parts or gaps with the stated changes limits assumed): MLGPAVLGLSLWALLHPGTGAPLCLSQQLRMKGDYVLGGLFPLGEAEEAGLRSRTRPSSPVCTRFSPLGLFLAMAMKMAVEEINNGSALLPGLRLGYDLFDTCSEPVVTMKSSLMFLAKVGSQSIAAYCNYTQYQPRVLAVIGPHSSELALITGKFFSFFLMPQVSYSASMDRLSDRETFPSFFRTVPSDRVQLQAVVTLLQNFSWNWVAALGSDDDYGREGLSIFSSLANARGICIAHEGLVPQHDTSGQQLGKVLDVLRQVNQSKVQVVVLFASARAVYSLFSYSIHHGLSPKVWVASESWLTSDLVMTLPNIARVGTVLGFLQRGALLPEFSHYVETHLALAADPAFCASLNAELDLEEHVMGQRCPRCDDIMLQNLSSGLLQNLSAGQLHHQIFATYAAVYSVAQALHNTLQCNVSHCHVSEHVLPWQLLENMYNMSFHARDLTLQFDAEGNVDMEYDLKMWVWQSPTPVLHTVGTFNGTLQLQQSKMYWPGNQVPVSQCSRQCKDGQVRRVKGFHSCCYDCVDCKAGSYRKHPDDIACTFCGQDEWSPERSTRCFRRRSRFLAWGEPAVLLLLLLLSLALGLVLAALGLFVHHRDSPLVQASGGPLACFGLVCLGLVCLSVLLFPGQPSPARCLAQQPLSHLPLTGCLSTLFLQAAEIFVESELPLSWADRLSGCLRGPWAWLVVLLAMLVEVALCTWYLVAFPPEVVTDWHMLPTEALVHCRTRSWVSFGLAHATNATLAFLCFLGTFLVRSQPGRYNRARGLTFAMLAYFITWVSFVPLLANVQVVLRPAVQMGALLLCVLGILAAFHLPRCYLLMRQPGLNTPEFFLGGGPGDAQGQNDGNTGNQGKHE
Details: Table 4; genes h-mT471/T3mA (h-mT1R2-471, T1R3mA); HEK293E cells
Residues, ends and D or L forms follow the SMILES beside them.
Reported values of S/N for individual entries

| compound | S/N |
| --- | --- |
| COC(=O)[C@H](Cc1ccccc1)NC(=O)[C@@H](N)CC(=O)O [Aspartame, aspartame] (HELM PEPTIDE1{D.F.[CO[*:1]]}$$$$V2.0) | 7.9 |
| OC[C@H]1O[C@@](CO)(O[C@H]2O[C@H](CO)[C@@H](O)[C@H](O)[C@H]2O)[C@@H](O)[C@@H]1O [Sucrose, sucrose] | 3.5 |
| COC(=O)[C@H](Cc1ccccc1)NC(=O)[C@H](CC(=O)O)NCCCc1ccc(OC)c(O)c1 [Advantame, advantame] | 10.0 |
| CC1=CC(=O)NS(=O)(=O)O1 [Acesulfame K, acesulfame potassium] | 4.3 |
| C[C@H](NC(=Nc1ccc(C#N)cc1)NCC(=O)O)c1ccccc1 [SC-45647] | 6.5 |
| O=C1NS(=O)(=O)c2ccccc21.[Na] [Saccharin Na, sodium saccharin] | 3.9 |
| OC[C@H]1O[C@H](O[C@]2(CCl)O[C@H](CCl)[C@@H](O)[C@@H]2O)[C@H](O)[C@@H](O)[C@H]1Cl [Sucralose, sucralose] | 7.1 |
| COC(=O)[C@H](Cc1ccccc1)NC(=O)[C@H](CC(=O)O)NCCC(C)(C)C [Neotame, neotame] | 8.3 |
